# Tested on: MDA-MB-436
# protocol.description: In vitro anti-proliferation (Cell Titre-Glo), MDA-MB-436
# Format: cell-based
# assay.context: Homo sapiens; MDA-MB-436, breast; 96 hours of incubation; mono-treatment
pIC50: −log10 of the molar value.

>  <compound>
O=C(c1cc(Cc2n[nH]c(=O)c3ccccc23)ccc1F)N1CCN(C(=O)C2CC2)CC1 [Compound B, Olaparib]

>  <pIC50>
5.19

$$$$

###

# System: IGR-OV-1
# protocol.description: In vitro anti-proliferation (Cell Titre-Glo), IGR-OV-1
# Type: cell-based
# assay.context: Homo sapiens, IGROV-1; IGR-OV-1, ovary; 96 hours of incubation; mono-treatment
# Procedure: Tumor cells (Table 1) were propagated in a humidified 37° C. incubator in their respective growth medium supplemented 10% fetal calf serum. […] Test compounds were added to the wells using a Tecan-HP Digital Dispenser. After 96 hours of incubation cell viability was assessed with the Cell Titre-Glo Luminescent Cell Viability Assay (Promega).
pIC50: −log10 of the molar value.

>  <compound.structure>
O=C(c1cc(Cc2n[nH]c(=O)c3ccccc23)ccc1F)N1CCN(C(=O)C2CC2)CC1

>  <pIC50>
4.66

$$$$

Ref: patent US11660301B2
